Data provenance: patent US20250236617A1

tested on: MV-3 RFP cells; experiment: T-cell-TCB-MV3 killing assay; type: cell-based; settings: MV-3, 120 h; primary human T-cells + MCSP-TCB, 5 d; 20 μM reference compound A1 = 100%; read-out: MSCP TCB killing MV-3 cells 5 d Emax
MEASURED METRIC: Emax (%)
Numeric only. Scale: %

QUERY: Entry CC(C)(c1cncc(-c2cc3c(cc2F)S(=O)(=O)C[C@H](N)C(=O)N3Cc2ccc(-c3noc(C(F)(F)F)n3)cc2)c1)S(C)(=O)=O : reported Emax = ?
RESULT: 86

QUERY: Can you handle CC(C)(C)c1cnnc(-c2cc3c(cc2F)S(=O)(=O)C[C@H](N)C(=O)N3Cc2ccc(Cl)cc2)n1 next?
RESULT: 118

QUERY: Next entry: CC(C)(C)c1cncc(-c2cc3c(cc2F)S(=O)(=O)C[C@H](N)C(=O)N3Cc2ccc(Cl)cc2)c1
RESULT: 85

QUERY: # repeat for COc1ccc(-c2ccc(CN3C(=O)[C@@H](N)CS(=O)(=O)c4cc(F)c(-c5cnc(C)c(C)c5)cc43)cc2)cc1
RESULT: 89

###

target: DGK ζ kinase (Homo sapiens (Human))
Sequence (Q13574 whole entry): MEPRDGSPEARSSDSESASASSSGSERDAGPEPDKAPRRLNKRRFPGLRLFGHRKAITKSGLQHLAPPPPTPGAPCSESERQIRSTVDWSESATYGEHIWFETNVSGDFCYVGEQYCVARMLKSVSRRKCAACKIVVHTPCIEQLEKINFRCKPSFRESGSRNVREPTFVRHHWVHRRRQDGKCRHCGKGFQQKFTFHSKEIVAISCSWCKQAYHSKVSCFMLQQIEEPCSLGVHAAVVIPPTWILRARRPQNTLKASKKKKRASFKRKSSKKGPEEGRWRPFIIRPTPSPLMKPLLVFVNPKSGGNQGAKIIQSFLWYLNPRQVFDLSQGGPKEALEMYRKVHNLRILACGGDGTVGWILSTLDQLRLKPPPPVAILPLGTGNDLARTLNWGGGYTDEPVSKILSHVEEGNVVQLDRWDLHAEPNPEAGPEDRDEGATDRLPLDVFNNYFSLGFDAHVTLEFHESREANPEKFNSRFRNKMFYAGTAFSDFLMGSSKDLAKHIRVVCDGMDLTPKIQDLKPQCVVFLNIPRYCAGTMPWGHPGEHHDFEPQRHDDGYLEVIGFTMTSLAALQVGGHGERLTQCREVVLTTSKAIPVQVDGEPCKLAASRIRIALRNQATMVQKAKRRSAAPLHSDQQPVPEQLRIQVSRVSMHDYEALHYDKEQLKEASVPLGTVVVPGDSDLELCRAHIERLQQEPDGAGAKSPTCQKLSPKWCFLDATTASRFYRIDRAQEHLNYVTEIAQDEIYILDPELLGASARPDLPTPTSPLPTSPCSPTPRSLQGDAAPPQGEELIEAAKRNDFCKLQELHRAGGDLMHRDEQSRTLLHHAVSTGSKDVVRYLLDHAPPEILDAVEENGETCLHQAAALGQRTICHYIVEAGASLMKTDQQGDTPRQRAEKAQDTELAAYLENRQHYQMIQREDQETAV
MEASURED METRIC: IC50 (nM)
Write it as a number; the unit nM goes unstated.

QUERY: Would you mind telling me what IC50 value was observed for CC(C)(C#N)c1cncc(-c2cc3c(cc2F)S(=O)(=O)C[C@H](N)C(=O)N3Cc2ccc(-c3noc(C(F)(F)F)n3)cc2)c1 ?
RESULT: 310

###

This section lists IC50 readings for DGKalpha (hDGKalpha(1-735)-N-His) (Homo sapiens (Human)).
Write the numeric value and append its unit.

QUERY: Form: Entry = CC(C)(C)c1nncc(-c2cc3c(cc2F)S(=O)(=O)C[C@H](N)C(=O)N3Cc2ccc(-c3noc(C(F)(F)F)n3)cc2)n1 | System = DGKalpha (hDGKalpha(1-735)-N-His) (Homo sapiens (Human)) | IC50 = ____
RESULT: 24.5 µM

QUERY: Now the same for CC(C)(c1cncc(-c2cc3c(cc2F)S(=O)(=O)C[C@H](N)C(=O)N3Cc2ccc(-c3noc(C(F)(F)F)n3)cc2)c1)S(C)(=O)=O
RESULT: 22.2 µM

QUERY: Entry to check: COc1ccc(-c2ccc(CN3C(=O)[C@@H](N)CS(=O)(=O)c4cc(F)c(-c5cncc(C(C)(C)C)c5)cc43)cc2)cc1
RESULT: 29.1 µM

###

Test system: primary human T-cells
Experiment: IL2 secretion measurements in CD3-stimulated T-cells
Assay type: cell-based
Conditions: Homo sapiens, T-cell; CD3 condition, IL2 secretion after 24 hours; read-out: Tcell IL2 CD3 EC50
Method: As readouts for T-cell activation, 1L2 secretion after 24 hours and proliferation after 5 days was measured. Increases in 1L2 secretion and proliferation upon compound treatment were assessed as the % of the maximum of reference compound A1. […] The immunoassay is done following the manufacturer's manual (Invitrogen, #A35603). […] Raw data is extracted and IL-2 concentrations are calculated with the Thermo Fisher online app (apps.thermofisher.com/apps/proquantum). […]
pEC50: −log10 of the molar value.
Give y when the value for pEC50 is at least 6. Give n when it is less.

QUERY: Does pEC50 meet or surpass 6 for CC(C)(C#N)c1cncc(-c2cc3c(cc2F)S(=O)(=O)C[C@H](N)C(=O)N3Cc2ccc(-c3noc(C(F)(F)F)n3)cc2)c1 ?
RESULT: n

QUERY: Likewise for N[C@H]1CS(=O)(=O)c2cc(F)c(-c3cnnc(OCC(F)(F)F)c3)cc2N(Cc2ccc(-c3noc(C(F)(F)F)n3)cc2)C1=O ?
RESULT: n

QUERY: Same read-out for CC(C)(C)c1cncc(-c2cc3c(cc2F)S(=O)(=O)C[C@H](N)C(=O)N3Cc2ccc(Cl)cc2)c1 ?
RESULT: y

QUERY: # iterate: CC(C)Oc1ccc(CN2C(=O)[C@@H](N)CS(=O)(=O)c3cc(F)c(-c4nncc(C(C)(C)C)n4)cc32)cc1
RESULT: n
